experiment: chemical genetic growth profiling, strain panel (AID 1159580);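 note: tested at 20 µM; growth read once vehicle control cultures reached saturation at 30 °C; 1 = growth at the plate median or of vehicle wells; lower values mean less growth of the strain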; details: S. cerevisiae deletion strains, growth OD, locus YGR252W, strain gcn5, stronger effect = lower value
Among all 5,500 compounds or so, about 2,000 (36%) were called active. Not shown: some 18% with an inconclusive outcome. The list shows a part of the results.
Entries and their normalized growth
Readout type: normalized growth

[[record]]
molecule = "Nc1c2ccccc2nc2ccccc12 (tested in a mixture with another compound)"
readout_type = "normalized growth"
observed_result = 0.461

[[record]]
molecule = "CNCc1ccccc1"
readout_type = "normalized growth"
observed_result = 0.908

[[record]]
molecule = "C[C@H]1[C@H](C)CC[C@]2(CO)CC[C@]3(C)C(=CCC4[C@@]5(C)CC[C@H](O)C(C)(C)C5CC[C@]43C)[C@H]12 (stereo partly drawn)"
readout_type = "normalized growth"
observed_result = 1.02

[[record]]
molecule = "NNc1nncc2ccccc12"
readout_type = "normalized growth"
observed_result = 0.941

[[record]]
molecule = "CNC(=O)O/N=C\\C(C)(C)SC"
readout_type = "normalized growth"
observed_result = 0.98

[[record]]
molecule = "C[C@@H]1OC(O[C@H]2[C@H](OC(=O)[C@]34CCC(C)(C)CC3C3=CCC5[C@@]6(C)CC[C@H](OC7O[C@@H](C)[C@H](O[C@@H]8OC[C@@H](O)[C@H](O)[C@H]8O)[C@@H](O)[C@H]7O)C(C)(C)C6CC[C@@]5(C)[C@]3(C)CC4O)OC[C@H](O)[C@H]2O)[C@H](O)[C@H](O)[C@H]1O[C@@H]1O[C@H](CO)[C@@H](O)[C@H](O)[C@H]1O (stereo partly drawn)"
readout_type = "normalized growth"
observed_result = 0.934

[[record]]
molecule = "COc1ccc2c3c([nH]c2c1)C(C)=NCC3"
readout_type = "normalized growth"
observed_result = 0.963

[[record]]
molecule = "Nc1ccc(S(=O)(=O)Nc2cnc3ccccc3n2)cc1"
readout_type = "normalized growth"
observed_result = 0.988

[[record]]
molecule = "Nc1c2ccccc2nc2ccccc12"
readout_type = "normalized growth"
observed_result = 0.544

[[record]]
molecule = "C[C@@H]1CC[C@]2(C(=O)O)CC[C@]3(C)C(=CCC4[C@@]5(C)CC[C@H](O)C(C)(C)C5CC[C@]43C)C2[C@H]1C (stereo partly drawn)"
readout_type = "normalized growth"
observed_result = 1.01

[[record]]
molecule = "COc1ccc2c(c1)c(CC(=O)OCC(=O)O)c(C)n2C(=O)c1ccc(Cl)cc1"
readout_type = "normalized growth"
observed_result = 0.987

[[record]]
molecule = "COc1ccc2c(c1)c(CC(=O)O)c(C)n2C(=O)c1ccc(Cl)cc1"
readout_type = "normalized growth"
observed_result = 0.94

[[record]]
molecule = "COc1ccc2[nH]cc(CCN)c2c1"
readout_type = "normalized growth"
observed_result = 0.843

[[record]]
molecule = "COC(=O)C[C@H]1C(C)(C)C2(O)OC34CC2C(=O)[C@]1(C)C3CC[C@]1(C)C4=CC(=O)O[C@H]1c1ccoc1 (stereo partly drawn)"
readout_type = "normalized growth"
observed_result = 1.05

[[record]]
molecule = "C/C=C(/C)C(=O)O[C@@H]1[C@H](OC(C)=O)[C@@]2(CO)C(CC1(C)C)C1=CCC3[C@@]4(C)CC[C@H](O[C@@H]5O[C@H](C(=O)O)[C@@H](O[C@@H]6O[C@H](CO)[C@@H](O)[C@H](O)[C@H]6O)[C@H](O)[C@H]5O[C@@H]5O[C@H](CO)[C@@H](O)[C@H](O)[C@H]5O)[C@](C)(CO)C4CC[C@@]3(C)[C@]1(C)C[C@H]2O (stereo partly drawn)"
readout_type = "normalized growth"
observed_result = 0.965

[[record]]
molecule = "N=C(N)c1ccc(OCCCCCOc2ccc(C(=N)N)cc2)cc1"
readout_type = "normalized growth"
observed_result = 0.819

[[record]]
molecule = "Nc1ccc(S(=O)(=O)Nc2ccnn2-c2ccccc2)cc1"
readout_type = "normalized growth"
observed_result = 0.958

[[record]]
molecule = "Cc1ccc(-c2cc(C(F)(F)F)nn2-c2ccc(S(N)(=O)=O)cc2)cc1"
readout_type = "normalized growth"
observed_result = 0.962


* * *

assay: chemical genetic growth profiling, strain panel (AID 1159580);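 note: tested at 20 µM; growth read once vehicle control cultures reached saturation at 30 °C; 1 = growth at the plate median or of vehicle wells; lower values mean less growth of the strain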; conditions: S. cerevisiae deletion strains, growth OD, locus YNL322C, strain KRE1
Hit rate of the full screen: of about 5,500 compounds, about 2,000 (36%) were called active. Inconclusive results (about 18%) are left out. Cut-off read from the data, not from the text of the source: active = normalized growth mostly below about 0.91 (no sharp cut-off); inconclusive = no clear call, values can overlap the other calls; inactive = mostly above about 0.92. Some of the results follow.
Labels: YES (active), NO (inactive)

[[record]]
molecule = "S=C(NCc1ccccc1)Nc1ccc(Cl)c(Cl)c1"
label_class = "NO"

[[record]]
molecule = "Cc1cc(=O)n2[nH]cc(C#N)c2n1"
label_class = "NO"

[[record]]
molecule = "NC(=S)COc1ccccc1Cl"
label_class = "NO"

[[record]]
molecule = "CC(C)(CO)Cc1cc(C(C)(C)C)c(O)c(C(C)(C)C)c1"
label_class = "NO"

[[record]]
molecule = "CC(=O)NC(C(=O)O)C(C)(C)SN=O (stereo not given)"
label_class = "NO"

[[record]]
molecule = "O=C1CC(CSc2ccc(Cl)cc2)=NN1"
label_class = "YES"

[[record]]
molecule = "CC(C)=CCCC1(C)C=Cc2c(O)c3c(c(CC=C(C)C)c2O1)OC12C(=CC4CC1C(C)(C)OC2(C/C=C(\\C)C(N)=O)C4=O)C3=O (stereo not given)"
label_class = "NO"

[[record]]
molecule = "Cc1cc(O)ccc1Cl"
label_class = "NO"

[[record]]
molecule = "C/C=C(/C)C(=O)O[C@@H]1[C@H](OC(C)=O)[C@@]2(CO)C(CC1(C)C)C1=CCC3[C@@]4(C)CC[C@H](O[C@@H]5O[C@H](C(=O)O)[C@@H](O[C@@H]6O[C@H](CO)[C@@H](O)[C@H](O)[C@H]6O)[C@H](O)[C@H]5O[C@@H]5O[C@H](CO)[C@@H](O)[C@H](O)[C@H]5O)[C@](C)(CO)C4CC[C@@]3(C)[C@]1(C)C[C@H]2O (stereo not given in full)"
label_class = "NO"

[[record]]
molecule = "O=C(O)CSCC(=O)NC1CCN(Cc2ccccc2)CC1"
label_class = "NO"

[[record]]
molecule = "O=C(O/N=C\\c1ccc2c(c1)OCO2)c1ccccc1Br"
label_class = "NO"

[[record]]
molecule = "FC(F)(F)c1cnc(N2CCN(C(=S)Nc3ccccc3)CC2)c(Cl)c1"
label_class = "NO"

[[record]]
molecule = "CC(C)(C=O)Cc1cc(C(C)(C)C)c(O)c(C(C)(C)C)c1"
label_class = "NO"

[[record]]
molecule = "Cc1cccc(NC(=S)NCc2ccncc2)c1"
label_class = "NO"

[[record]]
molecule = "CCOC(=O)c1ccc2[nH]c(-c3ccccc3)cc(=O)c2c1"
label_class = "NO"

[[record]]
molecule = "COC(=O)/C(C)=C\\CC12OC(C)(C)C3CC(C=C4C(=O)c5c(O)c6c(c(CCC(C)(C)Cl)c5OC431)OC1(C)CCC(=C(C)C)C6C1)C2=O (stereo not given)"
label_class = "NO"

[[record]]
molecule = "CCCC(CC(=O)O)(C(=O)O)c1ccccc1 (stereo not given)"
label_class = "NO"

[[record]]
molecule = "COc1ccccc1C1OC(=O)CC1C(=O)O (stereo not given)"
label_class = "NO"

[[record]]
molecule = "Cc1cc(C)cc(NC(=S)N2CCN(c3ncc(C(F)(F)F)cc3Cl)CC2)c1"
label_class = "NO"

[[record]]
molecule = "Cc1csc2ccc(Cl)cc12"
label_class = "NO"

[[record]]
molecule = "Cc1cc(O)cc(=O)o1"
label_class = "NO"

[[record]]
molecule = "CCCCCCCCCCCC[C@H](C(=O)O)[C@@H](C)C(=O)O"
label_class = "NO"

[[record]]
molecule = "c1cc2c(cc1N=C1SCC3CCCCN13)OCO2 (stereo not given)"
label_class = "NO"

[[record]]
molecule = "COc1cc(C2OC(c3cc(C)ccc3[N+](=O)[O-])=NN2C(C)=O)cc(OC)c1OC (stereo not given)"
label_class = "NO"

[[record]]
molecule = "Cc1noc(C)c1NC(N)=O"
label_class = "NO"

[[record]]
molecule = "O=C(CSCc1c(F)cccc1Cl)NC1Cc2ccccc2C1"
label_class = "NO"

[[record]]
molecule = "CCCCCc1ccc(C(=O)O/N=C\\c2c(Cl)cccc2Cl)cc1"
label_class = "NO"

[[record]]
molecule = "Cc1cccc(NC(=S)NC2CC3C=CC2C3)c1 (stereo not given)"
label_class = "NO"

[[record]]
molecule = "N#C/C(NCc1cccs1)=C(\\C#N)NCc1c(F)cccc1Cl"
label_class = "NO"

[[record]]
molecule = "COc1cccc(-c2nc(C#N)c(N)o2)c1"
label_class = "NO"

[[record]]
molecule = "O=C(O)CCCCCC[C@H]1C(=O)NC(=O)N1CC[C@@H](O)C1CCCCC1"
label_class = "NO"

[[record]]
molecule = "N[C@H](C(=O)O)[C@@H]1CC(Cl)=NO1"
label_class = "YES"

[[record]]
molecule = "O=C1C(O)=C(O)C(=O)C(O)=C1O"
label_class = "NO"

[[record]]
molecule = "COc1ccc2c(c1)c(CC(=O)N1CCOCC1)c(C)n2C(=O)c1ccc(Cl)cc1"
label_class = "NO"

[[record]]
molecule = "Cc1cc(OCOc2ccc(Cl)c(C)c2)ccc1Cl"
label_class = "NO"

[[record]]
molecule = "O=C(NC1CCN(Cc2ccc(Cl)c(Cl)c2)CC1)c1ccccc1"
label_class = "NO"

[[record]]
molecule = "CC(=O)/C=C\\[C@@H]1[C@@]2(C)CCCC(C)(C)C2CC[C@@]1(C)O (stereo not given in full)"
label_class = "NO"

[[record]]
molecule = "CN=c1nc(-c2ccccc2)n(-c2ccccc2)s1"
label_class = "NO"

[[record]]
molecule = "Cc1ccc(-c2cc(C(F)(F)F)nn2-c2ccc(S(N)(=O)=O)cc2)cc1"
label_class = "NO"

[[record]]
molecule = "O=S(=O)(CCN1CCOCC1)c1ccc(Cl)cc1"
label_class = "NO"

[[record]]
molecule = "COc1cc(N)c(Cl)cc1C(=O)NC1CCN(Cc2ccccc2)CC1"
label_class = "NO"

[[record]]
molecule = "O=C(O)c1ccc(N=Cc2ccc3c(c2)OCO3)cc1"
label_class = "NO"

[[record]]
molecule = "Oc1ccc2c3c1O[C@H]1c4[nH]c5ccccc5c4C[C@@]4(O)C(C2)N(CC2CC2)CCC314 (stereo not given in full)"
label_class = "NO"

[[record]]
molecule = "S=C(NCc1cccnc1)Nc1ccccc1Cl"
label_class = "NO"

[[record]]
molecule = "Nc1ccc(-n2nc(C(F)(F)F)cc2C(F)(F)F)cc1"
label_class = "NO"


Reference for the values: PubChem BioAssay AID1159580
